Assay: Volume of distribution at steady state in rat at 1 mg/kg, iv
Type: ADME, organism-based
Conditions: in vivo, read-out: Vdss
value_kind: Vd

Q: Quick one: Vd for Cc1cn(-c2ccc3n(c2=O)CCN([C@@H](C)[C@@H]2CC[C@H](c4cc(F)c(Cl)cc4C(F)(F)F)O2)C3=O)cn1 ?
A: 0.8 L/kg

###

Assay: Oral bioavailability in rat at 5 mg/kg
Format: ADME, organism-based
Conditions: in vivo
value_kind: bioavailability (%)
Could you give me the number in %? Just the number is fine.

Q: Request the reported bioavailability associated with Cc1cn(-c2ccc3n(c2=O)CCN([C@@H](C)[C@@H]2CC[C@H](c4cc(F)c(Cl)cc4C(F)(F)F)O2)C3=O)cn1
A: 67

Origin of measurements: ChEMBL document CHEMBL5512689
